Experiment: Stability in mouse plasma assessed as compound remaining at 5 uM after 5 hrs by UPLC-MS analysis
Type: ADME, cell-free
Conditions: read-out: Stability
Give measured remaining at 5 h, 5 µM for each item. Keep answers brief.
Field: numeric (%). Do not append units.

Req: Reported remaining at 5 h, 5 µM, compound Nc1ccc(-c2ccc(F)cc2)cc1NC(=O)C1C2COCC21 (stereo not drawn) : ____
Resp: 94.1

Req: # query: remaining at 5 h, 5 µM of entry Nc1ccc(-c2ccc(F)cc2)cc1NC(=O)C1Cc2ccccc2CO1 (stereo not drawn)
Resp: 11.1

Req: Name the recorded remaining at 5 h, 5 µM for `Nc1ccc(-c2ccc(F)cc2)cc1NC(=O)[C@H]1CCCCO1` .
Resp: 0

Req: What value of remaining at 5 h, 5 µM has been recorded for this entry: Nc1ccc(-c2ccc(F)cc2)cc1NC(=O)C1COc2ccccc2C1 (stereo not drawn)
Resp: 100

Req: Given the compound `Nc1ccc(-c2ccc(F)cc2)cc1NC(=O)C1CCOCC1` , what is its reported remaining at 5 h, 5 µM?
Resp: 93

Req: // returns reported remaining at 5 h, 5 µM for input Nc1ccc(-c2ccc(F)cc2)cc1NC(=O)C1CCc2ccccc2O1 (stereo not drawn)
Resp: 3.7

Req: Suppose we examine the compound `Nc1ccc(-c2ccc(F)cc2)cc1NC(=O)[C@@H]1C[C@H]2CC[C@@H](C1)O2` ; what remaining at 5 h, 5 µM value has been reported?
Resp: 114

Req: Can you share its remaining at 5 h, 5 µM? I mean this compound: `Nc1ccc(-c2ccc(F)cc2)cc1NC(=O)[C@@H]1CCCCO1`
Resp: 0

====

Test: Half life in Sprague-Dawley rat brain at 1 mg/kg, po
Assay type: ADME, organism-based
METRIC NAME: half-life
The answer consists of two parts: a number and, after it, its unit.

Req: Value lookup for half-life; key = `Nc1ccc(-c2ccc(F)cc2)cc1NC(=O)[C@@H]1C[C@H]2CC[C@@H](C1)O2`
Resp: 2.43 h

====

Test: Cmax in Sprague-Dawley rat plasma at 1 mg/kg, po
Assay type: ADME, organism-based
Design: dose 1 mg/kg, route oral
METRIC NAME: Cmax (µM)
Value expressed in µM; do not type the unit.

Req: GET /values?readout=Cmax&item= `Nc1ccc(-c2ccc(F)cc2)cc1NC(=O)[C@@H]1C[C@H]2CC[C@@H](C1)O2`
Resp: 3.97

====

Test: Cmax in Sprague-Dawley rat brain at 1 mg/kg, po
Type: ADME, organism-based
Set-up: dose 1 mg/kg, route oral
METRIC NAME: Cmax (nM)
The reply should be a number in nM, with the unit left off.

Req: // Cmax lookup, key: `Nc1ccc(-c2ccc(F)cc2)cc1NC(=O)[C@@H]1C[C@H]2CC[C@@H](C1)O2`
Resp: 890

====

Target: Histone deacetylase 9 (Homo sapiens, UniProt Q9UKV0)
Sequence (Q9UKV0 whole entry, the tested form may be a part): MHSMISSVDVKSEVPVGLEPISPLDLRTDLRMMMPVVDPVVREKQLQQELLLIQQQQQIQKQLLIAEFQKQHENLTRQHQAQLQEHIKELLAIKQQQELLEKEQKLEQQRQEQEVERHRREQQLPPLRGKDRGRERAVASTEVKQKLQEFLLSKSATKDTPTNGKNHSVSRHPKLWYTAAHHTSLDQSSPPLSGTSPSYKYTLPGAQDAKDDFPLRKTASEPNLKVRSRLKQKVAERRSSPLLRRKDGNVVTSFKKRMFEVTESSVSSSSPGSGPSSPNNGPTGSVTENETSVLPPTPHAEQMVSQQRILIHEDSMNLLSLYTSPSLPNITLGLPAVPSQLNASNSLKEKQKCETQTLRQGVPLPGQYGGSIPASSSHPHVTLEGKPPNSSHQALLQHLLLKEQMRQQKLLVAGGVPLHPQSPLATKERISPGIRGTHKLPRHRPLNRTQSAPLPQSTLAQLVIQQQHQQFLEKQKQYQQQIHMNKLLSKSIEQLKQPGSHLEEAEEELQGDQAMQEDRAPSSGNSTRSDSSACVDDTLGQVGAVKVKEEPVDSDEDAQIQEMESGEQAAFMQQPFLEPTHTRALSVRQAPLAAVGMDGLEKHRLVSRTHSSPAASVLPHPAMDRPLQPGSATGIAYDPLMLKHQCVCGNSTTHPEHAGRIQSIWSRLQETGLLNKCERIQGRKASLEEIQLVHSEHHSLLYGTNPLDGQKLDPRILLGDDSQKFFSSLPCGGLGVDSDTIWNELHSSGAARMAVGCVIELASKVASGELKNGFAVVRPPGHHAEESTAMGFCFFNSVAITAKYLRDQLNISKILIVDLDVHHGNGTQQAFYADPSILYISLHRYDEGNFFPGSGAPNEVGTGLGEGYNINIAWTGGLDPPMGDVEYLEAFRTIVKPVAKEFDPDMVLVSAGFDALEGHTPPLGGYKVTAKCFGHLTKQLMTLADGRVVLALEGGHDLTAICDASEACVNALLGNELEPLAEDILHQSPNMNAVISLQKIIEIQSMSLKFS
Experiment: Inhibition of C-terminal His-tagged human recombinant HDAC9 (604 to 1066 residues) expressed in baculovirus coexpressed in fall armyworm Sf9 cells using carboxyfluorescein (FAM)-labeled acetylated/ trifluoroacetylated peptide as substrate after 60 mins by fluorescence assay
METRIC NAME: IC50

Req: Suppose we examine the molecule `Nc1ccc(-c2ccc(F)cc2)cc1NC(=O)[C@@H]1C[C@H]2CC[C@@H](C1)O2` ; what IC50 value has been reported?
Resp: > 33.3 µM

Origin of measurements: ChEMBL document CHEMBL3826926
